B1: ZNF449 (parent)
chain: HKKKSPGEKPHRCPQCGKCFARKS

# Variants of: B1
# measurement_notes: protein stability index of a GFP-peptide fusion (GPS, HEK-293T) (PSI 1-6); higher = more stable;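 note: lentivirally expressed fusions sorted by FACS into six bins by GFP to DsRed ratio, PSI derived from sequencing read proportions per bin multiplied by bin number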
# condition_notes: c terminus: a fixed tail appended
test_readout: protein stability index

INSERT INTO results (sequence_record, val) VALUES
  ('TKKKSPGEKPHRCPQCGKCFARKS', 2.88),
  ('YKKKSPGEKPHRCPQCGKCFARKS', 3.16),
  ('HKKQSPGEKPHRCPQCGKCFARKS', 2.84);

Hi team, please reply with protein stability index for each item in this list.
1. SKKKSPGEKPHRCPQCGKCFARKS
2. HKKKSVGEKPHRCPQCGKCFARKS
3. HKKKSIGEKPHRCPQCGKCFARKS
4. HKKKSPGEKPHRCNQCGKCFARKS
5. HKKKSPGEKPHRCPQCGKCFARKD
6. KKKKSPGEKPHRCPQCGKCFARKS

A)
1: 4.38; 2: 2.98; 3: 3.19; 4: 3.87; 5: 3.97; 6: 3.5

Hi team, please reply with protein stability index for each item in this list.
1. HKKKSPGEKPHRCPQCGKCFARPS
2. HKKLSPGEKPHRCPQCGKCFARKS
3. HKKKSPGEKPHRCPQCGSCFARKS
4. HKKKSPGEKPCRCPQCGKCFARKS
5. HKKKSPGIKPHRCPQCGKCFARKS
6. HKKKSPGEKPHRCIQCGKCFARKS
7. HHKKSPGEKPHRCPQCGKCFARKS
8. HKKKSPGEKDHRCPQCGKCFARKS

A)
1: 2.43; 2: 4.2; 3: 2.94; 4: 4.53; 5: 3.17; 6: 3.62; 7: 3.27; 8: 3.74

Hi team, please reply with protein stability index for each item in this list.
1. HKKKSPGEKPHRCPICGKCFARKS
2. HKKKSPGEMPHRCPQCGKCFARKS
3. HKKKSPGEKPHRTPQCGKCFARKS
4. HKKPSPGEKPHRCPQCGKCFARKS
5. HKKKSRGEKPHRCPQCGKCFARKS
6. HIKKSPGEKPHRCPQCGKCFARKS
7. HKKKSPGEKPRRCPQCGKCFARKS
8. HKKKSPGEKPHRCPQCGKCFKRKS

A)
1: 3.45; 2: 4.23; 3: 4.67; 4: 3.72; 5: 3.51; 6: 2.98; 7: 3.08; 8: 3.99
